System: wild buckwheat (Polygonum convululus)
Experiment: General postemergence herbicidal activity, wild buckwheat
Assay type: in vivo
Details: post-emergence, 336 h, 140 g ai/ha, postemergence, after 14 d, 0 = no injury, 100 = complete kill, read-out: POLCO % Visual Injury
endpoint-label: pest or weed control at 140 g/ha
Note: state the figure and append the unit.

pest or weed control at 140 g/ha recorded for this molecule, C=CCONC(=O)c1nc(-c2ccc(Cl)c(OC)c2F)cc(N)c1Cl , is 100%

Form field pest or weed control at 140 g/ha, entry CCONC(=O)c1nc(-c2ccc(Cl)c(OC)c2F)cc(N)c1Cl : 100%

pest or weed control at 140 g/ha reported for this molecule C=CCONC(=O)c1nc(C2CC2)nc(N)c1Cl : 100%

Value of pest or weed control at 140 g/ha reported for the molecule C=CCONC(=O)c1nc(-c2ccc(Cl)c(OC)c2F)nc(N)c1C=C is 15%

Sample COc1c(Cl)ccc(-c2nc(C(=O)NOC3CCCCO3)c(Cl)c(N)c2F)c1F (centres unmarked) ; pest or weed control at 140 g/ha observed: 100%
